Tested On: hNurr1_RXRαFL (NURR1/RXRα heterodimer) (Homo sapiens, UniProt P19793+P43354)
Sequence (P19793 whole entry, one chain of several, the tested form may be a part): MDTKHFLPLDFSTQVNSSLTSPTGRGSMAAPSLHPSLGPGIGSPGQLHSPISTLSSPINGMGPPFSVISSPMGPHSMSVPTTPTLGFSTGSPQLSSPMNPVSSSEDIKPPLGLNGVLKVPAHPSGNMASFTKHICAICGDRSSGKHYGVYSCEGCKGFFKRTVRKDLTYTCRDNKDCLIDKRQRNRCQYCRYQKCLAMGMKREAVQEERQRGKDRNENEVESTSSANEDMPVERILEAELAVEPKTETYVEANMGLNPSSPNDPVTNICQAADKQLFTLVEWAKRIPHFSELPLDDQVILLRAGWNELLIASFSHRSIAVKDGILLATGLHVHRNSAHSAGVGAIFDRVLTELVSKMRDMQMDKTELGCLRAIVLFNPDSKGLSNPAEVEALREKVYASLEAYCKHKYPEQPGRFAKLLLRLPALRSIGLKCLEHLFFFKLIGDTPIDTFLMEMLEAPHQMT
Test Protocol: Transactivation assay in Cos-7 cells, NURR-1-Gal4 / RXRα, luciferase reporter
Experimental Setup: Cos-7 cells, overnight incubation
Entries and their measured pEC50 follow.
Just so you know, pEC50 here is -log10 of the concentration in molar units; reply with that number alone.

> print(dat)
                                    compound  observed.property  experimental.value
 1  O=C(O)c1ccc(Cc2cc3cc(C(F)(F)F)ccc3n2S(=O)(=O)c2cccc(SC(F)F)c2)cc1 [Example 126]              pEC50                6.91
 2  COc1ccc(S(=O)(=O)n2c(Cc3ccc(C(=O)O)cc3)cc3cc(Cl)ccc32)cn1 [Example 169]              pEC50                5.99
 3  Cc1cc(Cc2cc3cc(C(F)(F)F)ccc3n2S(=O)(=O)c2cccc(C(C)(C)C)c2)c(F)cc1C(=O)O [Example 196]              pEC50                6.62
 4  CC(C)(C)c1cccc(S(=O)(=O)n2c(Cc3ccc(C(=O)O)c(Cl)c3)cc3cc(C(F)(F)F)ccc32)c1 [Example 206]              pEC50                6.76
 5  O=C(O)c1ccc(Cc2cc3cc(C(F)(F)F)ccc3n2S(=O)(=O)c2cccc(Cl)c2)cc1 [Example 143]              pEC50                6.47
 6  COc1c(Cc2cc3cc(C(F)(F)F)ccc3n2S(=O)(=O)c2cccc(C(C)(C)C)c2)cccc1C(=O)O [Example 207]              pEC50                6.29
 7  CN1C(=O)COc2ccc(S(=O)(=O)n3c(Cc4ccc(C(=O)O)cc4)cc4cc(C(F)(F)F)ccc43)cc21 [Example 125]              pEC50                6.09
 8  CC(C)CCc1ccc(S(=O)(=O)n2c(Cc3ccc(C(=O)O)cc3)cc3cc(C(F)(F)F)ccc32)cc1 [Example 128]              pEC50                6.47
 9  O=C(O)c1ccc(F)c(Cc2cc3cc(C(F)(F)F)ccc3n2S(=O)(=O)c2ccc3c(c2)OCCO3)c1 [Example 214]              pEC50                6.17
10  CC(C)(C)c1ccc(S(=O)(=O)n2c(Cc3ccc(C(=O)O)cc3)cc3cc(Cl)ccc32)cc1 [Example 155]              pEC50                6.58

Value of measured pEC50 for the entry CC(C)(C)c1cccc(S(=O)(=O)n2c(C(=O)c3ccc(C(=O)O)cc3)cc3cc(C(F)(F)F)ccc32)c1 [Example 219] : 5.95

Value of measured pEC50 for the entry CC(C)(C)c1cccc(S(=O)(=O)n2c(Cc3ccc(C4=NOC(=O)C4)cc3)cc3cc(C(F)(F)F)ccc32)c1 [Example 228] : 6.95

Value of measured pEC50 for the entry O=C(O)c1ccc(Cc2cc3cc(C(F)(F)F)ccc3n2S(=O)(=O)c2cc3ccccc3o2)cc1 [Example 122] : 6.45

Value of measured pEC50 for the entry O=C(O)c1ccc(Cc2cc3cc(C(F)(F)F)ccc3n2S(=O)(=O)c2ccc(Oc3ccccc3)cc2)cc1 [Example 144] : 6.08

Value of measured pEC50 for the entry O=C(O)c1ccc(Cc2cc3cc(C(F)(F)F)ccc3n2S(=O)(=O)c2ccc3c(c2)OCCO3)cc1 [Example 22] : 6.68

Value of measured pEC50 for the entry CC(C)(C)c1cccc(S(=O)(=O)n2c(Cc3ccc(C(=O)O)cn3)cc3cc(C(F)(F)F)ccc32)c1 [Example 66] : 7.15

Value of measured pEC50 for the entry CC(C)COc1ccc(S(=O)(=O)n2c(Cc3ccc(C(=O)O)cc3)cc3cc(C(F)(F)F)ccc32)cc1 [Example 127] : 6.58

Value of measured pEC50 for the entry Cc1cc(S(=O)(=O)n2c(Cc3ccc(C(=O)O)cc3)cc3cc(C(F)(F)F)ccc32)ccc1Cl [Example 121] : 6.72

###

Tested On: hNurr1_RXRαFL (NURR1/RXRα heterodimer) (Homo sapiens, UniProt P19793+P43354)
Test Protocol: Transactivation assay in Cos-7 cells, NURR-1-Gal4 / RXRα, luciferase reporter
Experimental Setup: Cos-7 cells, overnight incubation
The label label 1 is reserved for EC50 strictly under 400 nM; label 0 covers values equal to or above it.

Look over these answered cases.
> print(dat)
                           structure.string                                 tested.on  category
1  CCCc1ccc(S(=O)(=O)n2c(Cc3ccc(C(=O)O)cc3)cc3cc(Cl)ccc32)cc1  hNurr1_RXRαFL (NURR1/RXRα heterodimer) (Homo sapiens, UniProt P19793+P43354)   label 1
2  O=C(O)c1ccc(Cc2cc3cc(C(F)(F)F)ccc3n2S(=O)(=O)c2ccc(Oc3ccccc3)nc2)cc1  hNurr1_RXRαFL (NURR1/RXRα heterodimer) (Homo sapiens, UniProt P19793+P43354)   label 1

Attention now shifts to the item below.
## Task State whether 400 nM exceeds EC50 recorded for "CC(C)(C)c1cccc(S(=O)(=O)n2c(Cc3cccc(C(=O)O)c3)cc3cc(C(F)(F)F)ccc32)c1" .
## Result label 1

###

Tested On: hNurr1_RXRαFL (NURR1/RXRα heterodimer) (Homo sapiens, UniProt P19793+P43354)
Test Protocol: Transactivation assay in Cos-7 cells, NURR-1-Gal4 / RXRα, luciferase reporter
Assay type: cell-based
Experimental Setup: COS-7, read-out: hNurr1_RXRαFL Eff (%), efficacy in % relative to the reference XCT0135908 at 2·10^−5 M (=100%)
Observed Property: Emax (%)
Your answer should be a plain number; it is taken to be in %.

These solved cases illustrate the format of a correct answer.
> print(dat)
                                   compound  observed.property  unit.abbreviation  experimental.value
1  CN1CCOc2ccc(S(=O)(=O)n3c(Cc4csc(C(=O)O)c4)cc4cc(C(F)(F)F)ccc43)cc21 [Example 74]               Emax                  %                 150
2  O=C(O)c1ccc(Cc2cc3cc(Cl)ccc3n2S(=O)(=O)c2ccc(-c3cccc(F)c3)cc2)cc1 [Example 172]               Emax                  %                  82
3  COc1ccc(Cc2cc3cc(C(F)(F)F)ccc3n2S(=O)(=O)c2cccc(C(C)(C)C)c2)cc1C(=O)O [Example 202]               Emax                  %                 104
4  COC(=O)c1ccc(Cc2cc3cc(C(C)(C)C)ccc3n2S(=O)(=O)c2cccc(C(C)(C)C)c2)cc1 [Example 108]               Emax                  %                 110
5  CC(C)(C)c1cccc(S(=O)(=O)n2c(Cc3ccc(C(=O)NS(=O)(=O)c4ccccc4)cc3)cc3cc(C(F)(F)F)ccc32)c1 [Example 229]               Emax                  %                  60

Value of measured Emax for the entry CC(C)(C)c1cccc(S(=O)(=O)n2c(Cc3ccc(C(=O)O)c(O)c3)cc3cc(C(F)(F)F)ccc32)c1 [Example 56] : 82

Value of measured Emax for the entry O=C(O)c1ccc(Cc2cc3cc(C(F)(F)F)ccc3n2S(=O)(=O)c2cc3ccccc3o2)cc1 [Example 122] : 62

Value of measured Emax for the entry COC(=O)c1ccc(Cc2cc3cc(C(F)(F)F)ccc3n2S(=O)(=O)c2cccc(C(C)(C)C)c2)s1 [Example 190] : 97

###

Entries and their measured pEC50 follow.
Tested On: hNurr1_RXRγFL (NURR1/RXRγ heterodimer) (Homo sapiens, UniProt P43354+P48443)
Sequence (P43354 328-598): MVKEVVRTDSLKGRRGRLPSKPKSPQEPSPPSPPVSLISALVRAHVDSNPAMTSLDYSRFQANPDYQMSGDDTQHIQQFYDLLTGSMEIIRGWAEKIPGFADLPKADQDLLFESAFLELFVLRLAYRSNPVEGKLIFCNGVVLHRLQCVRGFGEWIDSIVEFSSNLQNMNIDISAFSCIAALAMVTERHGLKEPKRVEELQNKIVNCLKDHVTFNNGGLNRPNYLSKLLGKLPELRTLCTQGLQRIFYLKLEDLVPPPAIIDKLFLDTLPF
Sequence (P48443 whole entry, the tested form may be a part): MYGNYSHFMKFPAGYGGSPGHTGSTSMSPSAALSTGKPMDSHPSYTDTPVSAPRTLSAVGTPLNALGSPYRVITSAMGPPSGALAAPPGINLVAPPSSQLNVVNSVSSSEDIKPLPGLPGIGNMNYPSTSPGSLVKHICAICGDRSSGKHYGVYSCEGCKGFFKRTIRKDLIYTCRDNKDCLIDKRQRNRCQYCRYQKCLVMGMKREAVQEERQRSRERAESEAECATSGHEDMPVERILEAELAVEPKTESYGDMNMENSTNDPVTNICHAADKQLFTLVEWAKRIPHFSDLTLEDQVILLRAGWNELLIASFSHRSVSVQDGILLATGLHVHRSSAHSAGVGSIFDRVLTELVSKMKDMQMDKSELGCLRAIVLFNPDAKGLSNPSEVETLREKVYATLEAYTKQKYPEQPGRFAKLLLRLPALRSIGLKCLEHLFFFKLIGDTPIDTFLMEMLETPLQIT
Test Protocol: Transactivation assay in Cos-7 cells, NURR-1-Gal4 / RXRγ, luciferase reporter
Experimental Setup: Cos-7 cells, overnight incubation
Just so you know, pEC50 here is -log10 of the concentration in molar units; reply with that number alone.

> print(dat)
                                   compound                                 tested.on  experimental.value
1  CC(C)(C)c1cccc(S(=O)(=O)n2c(C(F)c3ccc(C(=O)O)cc3)cc3cc(C(F)(F)F)ccc32)c1 (stereo not shown)  hNurr1_RXRγFL (NURR1/RXRγ heterodimer) (Homo sapiens, UniProt P43354+P48443)                6.45
2  CC(C)c1ccc(S(=O)(=O)n2c(Cc3ccc(C(=O)O)c(O)c3)cc3cc(Cl)ccc32)cc1  hNurr1_RXRγFL (NURR1/RXRγ heterodimer) (Homo sapiens, UniProt P43354+P48443)                6.00

The record that follows has no pEC50 shown yet.
Value of measured pEC50 for the entry CC(C)c1cccc(S(=O)(=O)n2c(Cc3ccc(C(=O)O)cc3)cc3cc(C(F)(F)F)ccc32)c1 [Example 114] : 6.84
